Experiment: Solubility of the active substance in organic solvents
Format: physicochemical
Conditions: dmso and n-methylpyrrolidone, organic solvent or mixture; in Dimethylsulfoxid und N-Methylpyrrolidon; Gewicht-pro-Volumen-Prozent; read-out: Solubility (lösen)
Result type: solubility

INSERT INTO results (item_smiles, reported) VALUES
  ('O=C(NC(=O)c1c(F)cccc1F)Nc1ccc(Cl)c(Oc2ncc(C(F)(F)F)cc2Cl)c1', '~350 mg/mL');
